Values compiled from patent US20110092505A1.

Parameter: IC50. Scope: all listed entries.
Tgt: protein kinase D2 (PKD2) (Homo sapiens, UniProt Q9BZL6)
Construct: This assay is performed with full length wild-type enzyme purchase from Invitrogen
Sequence (Q9BZL6 1-878): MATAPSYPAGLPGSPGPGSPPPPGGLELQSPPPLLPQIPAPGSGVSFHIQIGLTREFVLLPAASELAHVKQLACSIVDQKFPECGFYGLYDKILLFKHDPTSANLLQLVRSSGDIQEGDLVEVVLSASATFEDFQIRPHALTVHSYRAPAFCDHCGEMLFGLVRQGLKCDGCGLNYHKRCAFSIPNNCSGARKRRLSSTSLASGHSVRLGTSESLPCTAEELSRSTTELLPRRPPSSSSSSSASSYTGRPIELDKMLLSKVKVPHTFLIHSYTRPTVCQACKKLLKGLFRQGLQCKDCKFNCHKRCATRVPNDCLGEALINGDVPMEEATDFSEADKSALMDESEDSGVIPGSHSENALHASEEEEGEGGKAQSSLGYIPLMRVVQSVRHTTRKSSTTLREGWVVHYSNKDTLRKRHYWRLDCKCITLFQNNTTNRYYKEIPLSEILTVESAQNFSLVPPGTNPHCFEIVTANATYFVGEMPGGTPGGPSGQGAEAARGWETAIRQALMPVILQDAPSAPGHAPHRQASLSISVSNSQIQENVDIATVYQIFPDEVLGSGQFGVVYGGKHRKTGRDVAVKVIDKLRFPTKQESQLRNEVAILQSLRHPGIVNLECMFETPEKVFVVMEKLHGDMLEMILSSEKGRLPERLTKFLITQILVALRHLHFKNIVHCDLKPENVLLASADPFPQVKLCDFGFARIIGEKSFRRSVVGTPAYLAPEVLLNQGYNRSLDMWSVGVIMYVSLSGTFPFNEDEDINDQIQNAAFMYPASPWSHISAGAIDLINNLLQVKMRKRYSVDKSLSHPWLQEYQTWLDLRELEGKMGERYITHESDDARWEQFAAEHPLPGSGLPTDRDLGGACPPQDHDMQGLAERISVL
Measurement Protocol: PKD2 TR-FRET (LANCE) kinase assay
Experimental Setup: full length wild-type enzyme, 20 μM ATP, syntide-2 substrate; read-out: Inhibitory Activity PKD2
// units = nM; emit number, no label

Suppose we examine the compound Fc1ccc(Nc2cc(-c3ccnc(NC4CCCCC4)c3)nc(N3CCNCC3)c2)cc1 ; what IC50 value has been reported?
1160

Record: NC(=O)c1cc(-c2ccnc(NC3CCCCC3)c2)nc(N2CCN3CCC[C@@H]3C2)c1
297

Record: NC(=O)c1cc(-c2ccnc(NCCc3ccc(O)cc3)c2)nc(N2CCNCC2)c1
402

Record: FC(F)(F)c1cc(-c2ccnc(NC3CCCCC3)c2)nc(N2CCNCC2)c1
101

Record: Cn1ccc(Nc2cc(-c3cc(C#N)cc(N4CCNCC4)n3)ccn2)n1
76
